- Test system: 168753-222-R-J1-PDC complex spheroid viability
- Protocol Text: Anticancer human tumor 168753-222-R-J1-PDC patient-derived bladder carcinoma cell line growth inhibition [CLK]
- Setup Conditions: second compound 0.1 µM; first compound 0.0316 µM; hits give low values
Measured viability, T/C of individual entries

{"Compound": "O=c1[nH]cc(F)c(=O)[nH]1 + CN1CCN(c2cc(C(=O)Nc3cc4cc(-c5cnn(C)c5)ccc4cn3)ccn2)CC1", "Assayed Target": "168753-222-R-J1-PDC complex spheroid viability", "Measured Result": "72%"}
{"Compound": "CCc1c2c(nc3ccc(O)cc13)-c1cc3c(c(=O)n1C2)COC(=O)[C@]3(O)CC + CNC(=O)c1ccc(Nc2nc(OC3CCCC3)c3c(-c4ccc5nc(C)oc5c4)c[nH]c3n2)c(OC)c1", "Assayed Target": "168753-222-R-J1-PDC complex spheroid viability", "Measured Result": "87.8%"}
{"Compound": "Nc1ccn(C2OC(CO)C(O)C2(F)F)c(=O)n1 (stereo unspecified) + CNC(=O)c1ccc(Nc2nc(OC3CCCC3)c3c(-c4ccc5nc(C)oc5c4)c[nH]c3n2)c(OC)c1", "Assayed Target": "168753-222-R-J1-PDC complex spheroid viability", "Measured Result": "88.4%"}
{"Compound": "COc1cccc2c1C(=O)c1c(O)c3c(c(O)c1C2=O)CC(O)(C(=O)CO)CC3OC1CC(N)C(O)C(C)O1 (stereo unspecified) + CN1CCN(c2cc(C(=O)Nc3cc4cc(-c5cnn(C)c5)ccc4cn3)ccn2)CC1", "Assayed Target": "168753-222-R-J1-PDC complex spheroid viability", "Measured Result": "38.4%"}
{"Compound": "C=C(F)C(=O)N1CCN(c2nc(OCC3CCCN3C)nc3c2CCN(c2cccc4cccc(Cl)c24)C3)CC1CC#N (stereo unspecified) + CN1CCN(c2cc(C(=O)Nc3cc4cc(-c5cnn(C)c5)ccc4cn3)ccn2)CC1", "Assayed Target": "168753-222-R-J1-PDC complex spheroid viability", "Measured Result": "58.7%"}

Now look at this one.
Please supply the value of reported viability, T/C for the item CC1COCCN1c1cc(C2(S(C)(=N)=O)CC2)nc(-c2ccnc3[nH]ccc23)n1 (stereo unspecified) + CN1CCN(c2cc(C(=O)Nc3cc4cc(-c5cnn(C)c5)ccc4cn3)ccn2)CC1
61.5%

====

- Tested on: 168753-222-R-J1-PDC complex spheroid viability
- Protocol Text: Anticancer human tumor 168753-222-R-J1-PDC cell line growth inhibition [CLK];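 further: luminescence signal used as surrogate for viable cell amount; viability measured after seven days of drug exposure; 100% = DMSO vehicle control wells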
- Setup Conditions: second compound 0.0316 µM; first compound 0.01 µM; hits give low values
Measured viability, T/C of individual entries
Report only the number, with the unit % understood.

{"Compound": "CCN1CCN(Cc2ccc(Nc3ncc(F)c(-c4cc(F)c5nc(C)n(C(C)C)c5c4)n3)nc2)CC1 + CN1CCN(c2cc(C(=O)Nc3cc4cc(-c5cnn(C)c5)ccc4cn3)ccn2)CC1", "Assayed Target": "168753-222-R-J1-PDC complex spheroid viability", "viability, T/C [%]": 44.8}
{"Compound": "Cn1ncnc1[C@H]1c2n[nH]c(=O)c3cc(F)cc(c23)N[C@@H]1c1ccc(F)cc1 + CNC(=O)c1ccc(Nc2nc(OC3CCCC3)c3c(-c4ccc5nc(C)oc5c4)c[nH]c3n2)c(OC)c1", "Assayed Target": "168753-222-R-J1-PDC complex spheroid viability", "viability, T/C [%]": 113}
{"Compound": "COc1c(OCCCN2CCOCC2)ccc2c3n(c(=NC(=O)c4cnc(N)nc4)nc12)CCN3 + CN1CCN(c2cc(C(=O)Nc3cc4cc(-c5cnn(C)c5)ccc4cn3)ccn2)CC1", "Assayed Target": "168753-222-R-J1-PDC complex spheroid viability", "viability, T/C [%]": 28.7}

Print 168753-222-R-J1-PDC complex spheroid viability viability, T/C for COc1c(OCCCN2CCOCC2)ccc2c3n(c(=NC(=O)c4cnc(N)nc4)nc12)CCN3 + CNC(=O)c1ccc(Nc2nc(OC3CCCC3)c3c(-c4ccc5nc(C)oc5c4)c[nH]c3n2)c(OC)c1 .
56.4

Print 168753-222-R-J1-PDC complex spheroid viability viability, T/C for CCc1c2c(nc3ccc(O)cc13)-c1cc3c(c(=O)n1C2)COC(=O)[C@]3(O)CC + CN1CCN(c2cc(C(=O)Nc3cc4cc(-c5cnn(C)c5)ccc4cn3)ccn2)CC1 .
65.3

Print 168753-222-R-J1-PDC complex spheroid viability viability, T/C for Cn1ncnc1[C@H]1c2n[nH]c(=O)c3cc(F)cc(c23)N[C@@H]1c1ccc(F)cc1 + CN1CCN(c2cc(C(=O)Nc3cc4cc(-c5cnn(C)c5)ccc4cn3)ccn2)CC1 .
101

Print 168753-222-R-J1-PDC complex spheroid viability viability, T/C for CCN1CCN(Cc2ccc(Nc3ncc(F)c(-c4cc(F)c5nc(C)n(C(C)C)c5c4)n3)nc2)CC1 + CNC(=O)c1ccc(Nc2nc(OC3CCCC3)c3c(-c4ccc5nc(C)oc5c4)c[nH]c3n2)c(OC)c1 .
104

Print 168753-222-R-J1-PDC complex spheroid viability viability, T/C for CCc1c2c(nc3ccc(O)cc13)-c1cc3c(c(=O)n1C2)COC(=O)[C@]3(O)CC + CNC(=O)c1ccc(Nc2nc(OC3CCCC3)c3c(-c4ccc5nc(C)oc5c4)c[nH]c3n2)c(OC)c1 .
96.2

Sourced from PubChem BioAssay AID2060626
